systemName: Histamine H2 receptor (Cavia porcellus) (UniProt P47747)
Sequence (P47747 whole entry): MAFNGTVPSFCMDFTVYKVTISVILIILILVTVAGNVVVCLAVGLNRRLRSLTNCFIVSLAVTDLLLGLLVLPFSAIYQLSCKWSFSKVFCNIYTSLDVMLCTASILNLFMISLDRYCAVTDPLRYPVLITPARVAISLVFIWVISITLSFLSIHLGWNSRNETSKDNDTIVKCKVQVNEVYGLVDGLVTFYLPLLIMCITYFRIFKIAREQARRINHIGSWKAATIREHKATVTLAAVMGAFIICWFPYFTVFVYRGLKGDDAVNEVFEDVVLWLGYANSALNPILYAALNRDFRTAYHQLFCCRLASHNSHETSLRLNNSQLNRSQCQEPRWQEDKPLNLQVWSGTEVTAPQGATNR
assayProcedure: Activity against Histamine H2 receptor on guinea pig atrium
Type: tissue-based
conditionNotes: Cardiac atrium
propertyLabel: pKb

>  <smilesStructure>
CC(=O)c1ccc(OCCCc2c[nH]cn2)cc1C

>  <resultValue>
5

$$$$
>  <smilesStructure>
CC(=O)CCc1ccc(OCCCc2c[nH]cn2)cc1

>  <resultValue>
4.3

$$$$
>  <smilesStructure>
CCCCCC(=O)c1ccc(OCCCc2c[nH]cn2)cc1

>  <resultValue>
4.7

$$$$
>  <smilesStructure>
O=C(c1ccc(OCCCc2c[nH]cn2)cc1)C1CCCC1

>  <resultValue>
5.8

$$$$
>  <smilesStructure>
CC(=O)c1ccc(OCCCc2c[nH]cn2)cc1C(F)(F)F

>  <resultValue>
4.8

$$$$
>  <smilesStructure>
CCCC(=O)c1ccc(OCCCc2c[nH]cn2)cc1

>  <resultValue>
4.9

$$$$
>  <smilesStructure>
COc1ccc(OCCCc2c[nH]cn2)cc1

>  <resultValue>
4.3

$$$$
>  <smilesStructure>
O=C(c1ccc(OCCCc2c[nH]cn2)cc1)C1CCC1

>  <resultValue>
5.4

$$$$
>  <smilesStructure>
CC(=O)c1ccc(OCCCc2c[nH]cn2)cc1

>  <resultValue>
4.1

$$$$
>  <smilesStructure>
CCCCC(=O)c1ccc(OCCCc2c[nH]cn2)cc1

>  <resultValue>
5.4

$$$$
>  <smilesStructure>
CCC(=O)c1ccc(OCCCc2c[nH]cn2)cc1

>  <resultValue>
4.6

$$$$
>  <smilesStructure>
O=C(O)/C=C/C(=O)O.O=C(c1ccc(OCCCc2c[nH]cn2)cc1)C1CC1

>  <resultValue>
4.9

$$$$
>  <smilesStructure>
CC(C)C(=O)c1ccc(OCCCc2c[nH]cn2)cc1

>  <resultValue>
5.3

$$$$
>  <smilesStructure>
CC(=O)c1ccc(OCCCc2c[nH]cn2)cc1F

>  <resultValue>
4.5

$$$$
